tested on: Monocotyledonous and dicotyledonous test plants; assay: Herbicidal action, application pre-emergence (Example B1); assay type: in vivo; set-up: key: 10=total damage to plant; 0=no damage to plant; settings: Agrostis-tenius, 1000 g/ha, evaluated after 9 or 13 days
# maps each entry to its AGSTE herbicidal action (damage score 0-10)
Answer with a number only.

Reference set (5 entries):
Molecule	Value Observed
Cn1nc(C(F)(F)F)c(Cl)c1CS(=O)(=O)C1=NOC(C)(C)C1F (stereo not shown)	10
CC(C)n1nc(CS(=O)(=O)C2=NOC(C)(C)C2F)c(C(F)(F)F)n1 (stereo not shown)	9
Cn1nc(C[S+]([O-])C2=NOC(C)(C)C2F)c(C(F)(F)F)c1C#N (single isomer, unassigned) [4.08]	10
C=CCn1nc(C[S+]([O-])C2=NOC(C)(C)C2F)c(C(F)(F)F)n1 (single isomer, unassigned) [7.08]	10
Cn1cc(CS(=O)(=O)C2=NOC(C)(C)C2F)c(C(F)(F)F)n1 (stereo not shown)	10

State its AGSTE herbicidal action (damage score 0-10): Cn1cc(C[S+]([O-])C2=NOC(C)(C)C2F)c(C(F)(F)F)n1 (mixture of isomers)
10

State its AGSTE herbicidal action (damage score 0-10): CC1(C)ON=C(S(=O)(=O)C(F)(F)c2c(F)cccc2F)C1F (stereo not shown)
10

----------
tested on: Monocotyledonous and dicotyledonous test plants; test: Herbicidal action, application pre-emergence (Example B1); format: in vivo; set-up: key: 10=total damage to plant; 0=no damage to plant; details: Poa trivialis, 1000 g/ha, evaluated after 9 or 13 days
Endpoint: POATR herbicidal action (damage score 0-10)
Answer with a number only.

Compound	Tested System	Value Observed
Cn1nc(C(F)(F)F)c(C[S+]([O-])C2=NOC(C)(C)C2F)c1OC(F)F (single isomer, unassigned) [2.24]	Monocotyledonous and dicotyledonous test plants	10
Cn1nc(C(F)(F)F)c(CSC2=NOC(C)(C)C2F)c1OC(F)F (centres unmarked)	Monocotyledonous and dicotyledonous test plants	9
Cc1nc(C(F)(F)F)ccc1CS(=O)(=O)C1=NOC(C)(C)C1F (centres unmarked)	Monocotyledonous and dicotyledonous test plants	10
Cn1nc(OC(F)F)c(C[S+]([O-])C2=NOC(C)(C)C2F)c1C(F)(F)F (single isomer, unassigned) [2.29]	Monocotyledonous and dicotyledonous test plants	10
COc1ncc(CS(=O)(=O)C2=NOC(C)(C)C2F)c(C(F)(F)F)n1 (centres unmarked)	Monocotyledonous and dicotyledonous test plants	10
CC1(C)ON=C(SCc2nn(CC3CCC3)nc2C(F)(F)F)C1F (centres unmarked)	Monocotyledonous and dicotyledonous test plants	0
CC1(C)ON=C(S(=O)(=O)Cc2ccccc2OC(F)(F)F)C1F (centres unmarked)	Monocotyledonous and dicotyledonous test plants	10
C#CCn1cc(CS(=O)(=O)C2=NOC(C)(C)C2F)c(C(F)(F)F)n1 (centres unmarked)	Monocotyledonous and dicotyledonous test plants	10

Return reported POATR herbicidal action (damage score 0-10) for target or system Monocotyledonous and dicotyledonous test plants, item Cc1nn(C(C)C)nc1C[S+]([O-])C1=NOC(C)(C)C1F (mixture of isomers) .
7

Return reported POATR herbicidal action (damage score 0-10) for target or system Monocotyledonous and dicotyledonous test plants, item Cn1cc(CS(=O)(=O)C2=NOC(C)(C)C2F)c(C(F)(F)F)n1 (centres unmarked) .
10

Return reported POATR herbicidal action (damage score 0-10) for target or system Monocotyledonous and dicotyledonous test plants, item CC1(C)ON=C([S+]([O-])Cc2nn(C3CCCC3)nc2C(F)(F)F)C1F (mixture of isomers) [7.13] .
8

Return reported POATR herbicidal action (damage score 0-10) for target or system Monocotyledonous and dicotyledonous test plants, item Cn1ncc(CS(=O)(=O)C2=NOC(C)(C)C2F)n1 (centres unmarked) .
9

Return reported POATR herbicidal action (damage score 0-10) for target or system Monocotyledonous and dicotyledonous test plants, item C=CCn1cc(CS(=O)(=O)C2=NOC(C)(C)C2F)c(C(F)(F)F)n1 (centres unmarked) .
10

----------
# maps each entry to its AGSTE herbicidal action (damage score 0-10)
tested on: Monocotyledonous and dicotyledonous test plants; assay: Herbicidal action, application pre-emergence (Example B1); type: in vivo; settings: Agrostis-tenius, 1000 g/ha, evaluated after 9 or 13 days
Answer with a number only.

Compound	Value Observed
CCn1ncc(CSC2=NOC(C)(C)C2F)n1 (centres unmarked)	9
CCn1ncc(CS(=O)(=O)C2=NOC(C)(C)C2F)n1 (centres unmarked)	9
CCc1nn(C)nc1C[S+]([O-])C1=NOC(C)(C)C1F (mixture of isomers)	10

Next item in the queue.
Return reported AGSTE herbicidal action (damage score 0-10) for target or system Monocotyledonous and dicotyledonous test plants, item Cc1nc(C(Cl)S(=O)(=O)C2=NOC(C)(C)C2F)n(C)n1 (racemic) .
10

----------
tested on: Monocotyledonous and dicotyledonous test plants; assay: Herbicidal action, application pre-emergence (Example B1); type: in vivo; design: key: 10=total damage to plant; 0=no damage to plant; conditions: Poa trivialis, 1000 g/ha, evaluated after 9 or 13 days
# maps each entry to its POATR herbicidal action (damage score 0-10)
Answer with a number only.

Reference set (5 entries):
Compound	Value Observed
CC1(C)ON=C(S(=O)(=O)C(Cl)c2ccccc2OC(F)(F)F)C1F (stereo not drawn)	10
CCn1cc(C[S+]([O-])C2=NOC(C)(C)C2F)c(C(F)(F)F)n1 (mixture of isomers)	10
Cn1nc(C(F)(F)F)c(C[S+]([O-])C2=NOC(C)(C)C2F)c1OCC(F)(F)F (single isomer, unassigned) [2.09]	10
Cc1nn(C)nc1C[S+]([O-])C1=NOC(C)(C)C1F (single isomer, unassigned) [7.02]	10
Cn1nc(C(F)(F)F)c(C[S+]([O-])C2=NOC(C)(C)C2F)c1OC(F)F (mixture of isomers) [2.23]	10

State its POATR herbicidal action (damage score 0-10): Cc1nn(C)c(OCC(F)(F)F)c1C[S+]([O-])C1=NOC(C)(C)C1F (single isomer, unassigned)
4

State its POATR herbicidal action (damage score 0-10): COCCn1nc(CS(=O)(=O)C2=NOC(C)(C)C2F)c(C(F)(F)F)n1 (stereo not drawn)
10

----------
system: Monocotyledonous and dicotyledonous test plants; assay: Herbicidal action, application pre-emergence (Example B1); assay type: in vivo; parameters: key: 10=total damage to plant; 0=no damage to plant; details: Poa trivialis, 1000 g/ha, evaluated after 9 or 13 days
# maps each entry to its POATR herbicidal action (damage score 0-10)
Answer with a number only.

Reference set (7 entries):
Compound	Tested System	Value Observed
Cn1nc(C(F)(F)F)c(C[S+]([O-])C2=NOC(C)(C)C2Cl)c1OCC(F)(F)F (centres unmarked)	Monocotyledonous and dicotyledonous test plants	10
Cn1nc(C[S+]([O-])C2=NOC(C)(C)C2F)c(C(F)(F)F)c1C#N (single isomer, unassigned) [4.07]	Monocotyledonous and dicotyledonous test plants	10
C=CCn1nc(C[S+]([O-])C2=NOC(C)(C)C2F)c(C(F)(F)F)n1 (single isomer, unassigned) [7.08]	Monocotyledonous and dicotyledonous test plants	10
Cn1nc(OCC(F)(F)F)c(CS(=O)(=O)C2=NOC(C)(C)C2F)c1C(F)(F)F (centres unmarked)	Monocotyledonous and dicotyledonous test plants	10
Cn1cc(C[S+]([O-])C2=NOC(C)(C)C2F)c(C(F)(F)F)n1 (mixture of isomers)	Monocotyledonous and dicotyledonous test plants	9
C=CCn1nc(C[S+]([O-])C2=NOC(C)(C)C2F)c(C(F)(F)F)n1 (single isomer, unassigned) [7.09]	Monocotyledonous and dicotyledonous test plants	10
CC1(C)ON=C(S(=O)(=O)Cc2cccnc2Cl)C1F (centres unmarked)	Monocotyledonous and dicotyledonous test plants	10

Return reported POATR herbicidal action (damage score 0-10) for target or system Monocotyledonous and dicotyledonous test plants, item Cn1nc(C[S+]([O-])C2=NOC(C)(C)C2F)c(C(F)(F)F)c1C#N (single isomer, unassigned) [4.08] .
8

----------
system: Monocotyledonous and dicotyledonous test plants; experiment: Herbicidal action, application pre-emergence (Example B1); format: in vivo; design: key: 10=total damage to plant; 0=no damage to plant; conditions: Agrostis-tenius, 1000 g/ha, evaluated after 9 or 13 days
# maps each entry to its AGSTE herbicidal action (damage score 0-10)

Reference set (3 entries):
Compound	Value Observed
COc1ncc(C[S+]([O-])C2=NOC(C)(C)C2F)c(C(F)(F)F)n1 (centres unmarked)	10
CC1(C)ON=C([S+]([O-])Cc2nn(C3CCCC3)nc2C(F)(F)F)C1F (single isomer, unassigned) [7.12]	10
Cn1nc(C(F)(F)F)c(CS(=O)(=O)C2=NOC(C)(C)C2F)c1F (centres unmarked)	10

State its AGSTE herbicidal action (damage score 0-10): CC(c1c(C(F)(F)F)nn(C)c1OCC(F)(F)F)S(=O)(=O)C1=NOC(C)(C)C1F (mixture of isomers)
10

State its AGSTE herbicidal action (damage score 0-10): Cn1nc(OCC(F)(F)F)c(C[S+]([O-])C2=NOC(C)(C)C2F)c1C(F)(F)F (single isomer, unassigned) [2.43]
0

State its AGSTE herbicidal action (damage score 0-10): Cn1nc(C(F)(F)F)c(C[S+]([O-])C2=NOC(C)(C)C2F)c1OC(F)F (single isomer, unassigned) [2.24]
10

State its AGSTE herbicidal action (damage score 0-10): Cn1nc(OC(F)F)cc1CSC1=NOC(C)(C)C1F (centres unmarked)
9

State its AGSTE herbicidal action (damage score 0-10): Cn1nc(C(F)(F)F)c(CS(=O)(=O)C2=NOC(C)(C)C2Cl)c1OCC(F)(F)F (centres unmarked)
10
